As shown below, each of these variants has a reported yeast fitness value.
B1: tRNA (parent)
chain: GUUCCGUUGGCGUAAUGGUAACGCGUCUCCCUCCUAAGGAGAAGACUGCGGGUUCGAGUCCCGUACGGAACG

# Variants of: B1
# procedureSummary: yeast fitness relative to wild type (ratio to wild type); higher = fitter; tRNA-Arg(CCU), competitive growth, 37 C, YPD
This sample holds only a part of the variants without activity.
No unit in the answer, only the number.

Some variants with recorded yeast fitness:
{"residueChange": "C30A G50U", "valueType": "yeast fitness", "number": 0.816}
{"residueChange": "A15U C49G C55U A65U", "valueType": "yeast fitness", "number": 0.56}
{"residueChange": "U32C A69C", "valueType": "yeast fitness", "number": 0.943}
{"residueChange": "C22G C33G", "valueType": "yeast fitness", "number": 0.685}

Reported yeast fitness ( G52A G56U ) = 0.554

Reported yeast fitness ( U19A C30A ) = 0.812
